Ref: ChEMBL document CHEMBL3758131

Let's go through some recorded pKi values for UniProtKB P08908 together.
# reply with the number alone; pKi is -log10 of concentration in mol/L

# annotated cases, reported pKi shown
O=S(=O)(NC1CC2CCC(C1)N2CCOc1cccc(-c2ccccc2)c1)c1ccc(F)c(F)c1 (stereo not drawn)
7.13
CC(C)c1cccc(OCCN2C3CCC2CC(NS(=O)(=O)c2cnn(C)c2)C3)c1 (stereo not drawn)
6.37
Nc1ccc(S(=O)(=O)NC2CCN(CCOc3ccccc3-c3ccccc3)CC2)cc1
6.39

Return reported pKi for target or system UniProtKB P08908, item CC(C)c1cccc(OCCN2C3CCC2CC(NS(=O)(=O)c2ccc(F)c(F)c2)C3)c1 (stereo not drawn) .
7.00

Return reported pKi for target or system UniProtKB P08908, item COc1ccccc1OCCN1CCC(NS(=O)(=O)c2ccc(F)cc2)CC1 .
6.33

Return reported pKi for target or system UniProtKB P08908, item O=S(=O)(NC1CC2CCC(C1)N2CCOc1cccc(-c2ccccc2)c1)c1cccc(F)c1 (stereo not drawn) .
6.91

Return reported pKi for target or system UniProtKB P08908, item O=S(=O)(NC1CCN(CCOc2ccccc2)CC1)c1ccc(F)cc1 .
5.75

Return reported pKi for target or system UniProtKB P08908, item CC(C)c1cccc(C(C)C)c1OCCN1CCC(NS(=O)(=O)c2ccc(F)cc2)CC1 .
5.21

###

# reported pKi; entries follow
Molecular target: 5-hydroxytryptamine receptor 1A (Homo sapiens)
Sequence (P08908 whole entry): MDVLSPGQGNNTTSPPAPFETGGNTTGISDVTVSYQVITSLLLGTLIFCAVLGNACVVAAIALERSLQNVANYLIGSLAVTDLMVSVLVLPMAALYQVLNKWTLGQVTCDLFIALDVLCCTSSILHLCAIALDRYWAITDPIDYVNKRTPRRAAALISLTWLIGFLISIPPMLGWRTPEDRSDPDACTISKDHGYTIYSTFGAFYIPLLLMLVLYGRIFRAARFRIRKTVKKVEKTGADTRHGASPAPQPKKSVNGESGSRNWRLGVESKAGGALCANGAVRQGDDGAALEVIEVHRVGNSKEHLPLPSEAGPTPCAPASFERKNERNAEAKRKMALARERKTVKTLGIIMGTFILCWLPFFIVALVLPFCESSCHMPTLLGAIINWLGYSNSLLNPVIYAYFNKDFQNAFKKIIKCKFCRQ
# reply with the number alone; pKi is -log10 of concentration in mol/L

# annotated cases, reported pKi shown
O=S(=O)(NC1CC2CCC(C1)N2CCOc1cccc(-c2ccccc2)c1)c1ccc(F)cc1 (stereo not given)
6.77
CC(C)c1ccccc1OCCN1CCC(NS(=O)(=O)c2ccc(N)cc2)CC1
6.30
O=S(=O)(c1cccc(Cl)c1)N1CC2CC1CN2CCOc1ccccc1-c1ccccc1 (stereo not given)
5.57
CC(C)c1ccccc1OCCN1CCC(NC(=O)c2ccc(F)cc2)CC1
6.70

Could you now look at the following molecule, please?
Give the reported value of pKi for this record: Cn1cc(S(=O)(=O)NC2CN(CCOc3ccccc3-c3ccccc3)C2)cn1
7.34

###

Species: Homo sapiens
Assay: Selectivity index ratio of Ki for human 5-HT1A receptor to Ki for human 5-HT7B
Classify as follows. Reported Ratio Ki greater than or equal to 10: Condition met. Reported Ratio Ki below: Condition not met.

Answered examples (3):
O=S(=O)(NC1CCN(CCOc2ccccc2C2CCCC2)CC1)c1cccc(F)c1
Condition met
O=S(=O)(NC1CC2CCC(C1)N2CCOc1cccc(-c2ccccc2)c1)c1ccc(F)c(F)c1 (centres undefined)
Condition not met
CC(C)(C)c1ccccc1OCCN1CCC(NS(=O)(=O)c2ccc(F)cc2)CC1
Condition met

Check the entry Cn1cc(S(=O)(=O)NC2CN(CCOc3ccccc3-c3ccccc3)C2)cn1 : does Ratio Ki equal or exceed 10?
Condition not met

Check the entry Nc1ccc(S(=O)(=O)NC2CCN(CCOc3ccccc3-c3ccccc3)CC2)cc1 : does Ratio Ki equal or exceed 10?
Condition met

Check the entry CC(C)c1ccccc1OCCN1CCC(NS(=O)(=O)c2cccnc2)CC1 : does Ratio Ki equal or exceed 10?
Condition not met

Check the entry Cn1cc(S(=O)(=O)NC2CCN(CCOc3ccccc3C(C)(C)C)CC2)cn1 : does Ratio Ki equal or exceed 10?
Condition met

Check the entry O=S(=O)(NC1CCN(CCOc2ccccc2C2CCCC2)CC1)c1ccc(F)cc1 : does Ratio Ki equal or exceed 10?
Condition met

Check the entry CC(C)(C)c1ccccc1OCCN1CCC(NS(=O)(=O)c2cccc(Cl)c2)CC1 : does Ratio Ki equal or exceed 10?
Condition met

Check the entry CC(C)c1cccc(OCCN2C3CCC2CC(NS(=O)(=O)c2cnn(C)c2)C3)c1 (centres undefined) : does Ratio Ki equal or exceed 10?
Condition not met

Check the entry CC(C)c1ccccc1OCCN1CC(NS(=O)(=O)c2ccc(F)cc2)C1 : does Ratio Ki equal or exceed 10?
Condition not met

Check the entry CC(C)c1cccc(OCCN2C3CCC2CC(NS(=O)(=O)c2ccc(F)c(F)c2)C3)c1 (centres undefined) : does Ratio Ki equal or exceed 10?
Condition met

Check the entry CC(C)c1ccccc1OCCN1CCC(NC(=O)Nc2ccc(F)cc2)CC1 : does Ratio Ki equal or exceed 10?
Condition not met

Check the entry CC(C)c1ccccc1OCCN1CCC(NC(=O)Nc2cccc(Cl)c2)CC1 : does Ratio Ki equal or exceed 10?
Condition not met

###

Target: 5-hydroxytryptamine receptor 6 (Homo sapiens, UniProt P50406)
Sequence (P50406 whole entry): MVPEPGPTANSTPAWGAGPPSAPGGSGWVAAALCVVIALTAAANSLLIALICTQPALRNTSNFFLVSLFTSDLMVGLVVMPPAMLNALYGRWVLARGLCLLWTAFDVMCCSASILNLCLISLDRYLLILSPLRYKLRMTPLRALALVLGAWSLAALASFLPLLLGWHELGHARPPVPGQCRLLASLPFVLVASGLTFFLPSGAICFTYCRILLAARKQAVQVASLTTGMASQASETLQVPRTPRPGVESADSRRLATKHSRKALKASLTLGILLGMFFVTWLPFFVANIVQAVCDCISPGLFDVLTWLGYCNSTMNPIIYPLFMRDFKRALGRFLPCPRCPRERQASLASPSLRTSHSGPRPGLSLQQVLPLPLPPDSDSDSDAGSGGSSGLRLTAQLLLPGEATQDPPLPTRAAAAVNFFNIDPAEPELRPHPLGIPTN
quantity kind: pKi
# reply with the number alone; pKi is -log10 of concentration in mol/L

Return reported pKi for target or system 5-hydroxytryptamine receptor 6 (Homo sapiens, UniProt P50406), item O=S(=O)(NC1CCN(CCOc2ccccc2C2CCCC2)CC1)c1cccc(F)c1 .
6.55

###

Target: D(2) dopamine receptor (Homo sapiens, UniProt P14416)
Sequence (P14416 whole entry): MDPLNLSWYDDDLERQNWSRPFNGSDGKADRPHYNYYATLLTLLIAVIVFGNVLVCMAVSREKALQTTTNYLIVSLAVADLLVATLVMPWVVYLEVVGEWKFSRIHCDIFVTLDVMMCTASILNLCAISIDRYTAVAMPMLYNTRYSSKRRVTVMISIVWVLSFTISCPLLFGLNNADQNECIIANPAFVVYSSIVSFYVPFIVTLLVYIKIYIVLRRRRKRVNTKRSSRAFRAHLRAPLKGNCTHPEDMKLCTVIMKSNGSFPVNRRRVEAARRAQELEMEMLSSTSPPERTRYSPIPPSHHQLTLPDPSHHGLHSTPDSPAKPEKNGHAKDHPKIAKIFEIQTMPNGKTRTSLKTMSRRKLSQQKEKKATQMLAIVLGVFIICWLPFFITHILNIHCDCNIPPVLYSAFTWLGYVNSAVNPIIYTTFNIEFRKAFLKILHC
quantity kind: Ki (nM)
Report the value in nM with no unit label.

Return reported Ki for target or system D(2) dopamine receptor (Homo sapiens, UniProt P14416), item O=S(=O)(NC1CCN(CCOc2ccccc2C2CCCC2)CC1)c1cccc(F)c1 .
322

###

Let's go through some recorded pKi values for 5-hydroxytryptamine receptor 7 (Homo sapiens) together.
# reply with the number alone; pKi is -log10 of concentration in mol/L

CC(C)c1cccc(OCCN2C3CCC2CC(NS(=O)(=O)c2cccc(Cl)c2)C3)c1 (stereo unspecified)
8.40
CC(C)c1ccccc1OCCN1CCC(NC(=O)Nc2cccc(Cl)c2)CC1
6.58
O=S(=O)(NC1CC2CCC(C1)N2CCOc1cccc(-c2ccccc2)c1)c1cccc(F)c1 (stereo unspecified)
7.92
O=S(=O)(c1cccc(Cl)c1)N1CC2CC1CN2CCOc1ccccc1-c1ccccc1 (stereo unspecified)
6.50

Could you now look at the following compound, please?
Give the reported value of pKi for this record: CC(C)c1ccccc1OCCN1CCC(NC(=O)Nc2ccc(F)cc2)CC1
6.70

###

Target: 5-hydroxytryptamine receptor 1A (Homo sapiens)
Sequence (P08908 whole entry): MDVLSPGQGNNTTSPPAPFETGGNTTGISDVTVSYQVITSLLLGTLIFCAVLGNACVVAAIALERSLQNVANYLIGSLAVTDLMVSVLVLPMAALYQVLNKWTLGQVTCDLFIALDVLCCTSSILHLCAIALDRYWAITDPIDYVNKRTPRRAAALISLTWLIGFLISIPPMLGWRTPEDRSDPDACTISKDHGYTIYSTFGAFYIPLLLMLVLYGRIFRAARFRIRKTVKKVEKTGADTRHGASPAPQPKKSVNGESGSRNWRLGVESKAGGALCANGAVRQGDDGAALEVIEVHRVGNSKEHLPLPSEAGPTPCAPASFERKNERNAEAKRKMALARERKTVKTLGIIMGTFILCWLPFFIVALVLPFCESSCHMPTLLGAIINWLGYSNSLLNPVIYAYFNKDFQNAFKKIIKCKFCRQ
Experiment: Displacement of [3H]-8-OH-DPAT from human 5-HT1A receptor expressed in HEK293 cells after 1 hr
Assay type: cell-based
quantity kind: pKi
# reply with the number alone; pKi is -log10 of concentration in mol/L

# annotated cases, reported pKi shown
CC(C)c1cccc(OCCN2C3CCC2CC(NS(=O)(=O)c2cc(F)ccc2F)C3)c1 (stereo not given)
7.29
O=S(=O)(NC1CCN(CCOc2ccccc2C2CCCC2)CC1)c1cccc(F)c1
6.26
CC(C)c1ccccc1OCCN1CC(NS(=O)(=O)c2ccc(F)cc2)C1
7.35
O=S(=O)(NC1CCN(CCOc2ccccc2C2CCCC2)CC1)c1ccc(F)cc1
6.43
O=S(=O)(c1ccc(F)cc1)N1CC2CC1CN2CCOc1ccccc1-c1ccccc1 (stereo not given)
5.97
O=S(=O)(NC1CN(CCOc2ccccc2-c2ccccc2)C1)c1cccc(Cl)c1
7.64
O=S(=O)(NC1CCN(CCOc2ccccc2-c2ccccc2)CC1)c1cccnc1
6.27
CC(C)c1ccccc1OCCN1CC2CC1CN2S(=O)(=O)c1ccc(F)cc1 (stereo not given)
6.59

Return reported pKi for target or system 5-hydroxytryptamine receptor 1A (Homo sapiens), item CC(C)c1cccc(OCCN2C3CCC2CC(NS(=O)(=O)c2cccc(Cl)c2)C3)c1 (stereo not given) .
6.69

Return reported pKi for target or system 5-hydroxytryptamine receptor 1A (Homo sapiens), item CC(C)Oc1ccccc1OCCN1CCC(NS(=O)(=O)c2ccc(F)cc2)CC1 .
6.71
